# Procedure text: Residues of EQ and EQDM in fish flesh
# Type: in vivo
# Experimental parameters: Atlantic salmon, oral, 50 mg EQ/kg feed
Assay readout: concentration at 90 days (ng/g)

1. CCOc1ccc2c(c1)C(C)=CC(C)(C)N2	40

* * *

# concentration at 42 days per entry
# Procedure text: Residues of EQ and metabolites/TPs in cattle tissues
# Assay type: in vivo
# Experimental parameters: Holstein, bovine, liver, oral, 50 mg EQ/kg complete feed
Assay readout: concentration at 42 days (ng/g)

1. CCOC1=CC(=O)C2=NC(C)(C)C=C(C)C2=C1 [Metabolite A, 6‐ethoxy‐2,2,4‐trimethyl‐quinolin‐8‐one]	121
2. CCOc1ccc2c(c1)C(C)=CC(C)(C)N2	34
